biological target: human TLR8 (Homo sapiens (Human), UniProt Q9NR97); test: TLR8 inhibition reporter assay (HEK-Blue SEAP); conditions: read-out: TLR8 IC50; HEK-Blue cells overexpressing human TLR8, R848 15.9 μM stimulation, SEAP reporter;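 note: SEAP driven by IFN-β minimal promoter carrying NF-κB and AP-1 sites, compounds dosed 0.05 nM to 50 µM for 22 h, inhibition scaled between agonist-plus-DMSO and reference-inhibitor wells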
Sequence (Q9NR97 27-1041): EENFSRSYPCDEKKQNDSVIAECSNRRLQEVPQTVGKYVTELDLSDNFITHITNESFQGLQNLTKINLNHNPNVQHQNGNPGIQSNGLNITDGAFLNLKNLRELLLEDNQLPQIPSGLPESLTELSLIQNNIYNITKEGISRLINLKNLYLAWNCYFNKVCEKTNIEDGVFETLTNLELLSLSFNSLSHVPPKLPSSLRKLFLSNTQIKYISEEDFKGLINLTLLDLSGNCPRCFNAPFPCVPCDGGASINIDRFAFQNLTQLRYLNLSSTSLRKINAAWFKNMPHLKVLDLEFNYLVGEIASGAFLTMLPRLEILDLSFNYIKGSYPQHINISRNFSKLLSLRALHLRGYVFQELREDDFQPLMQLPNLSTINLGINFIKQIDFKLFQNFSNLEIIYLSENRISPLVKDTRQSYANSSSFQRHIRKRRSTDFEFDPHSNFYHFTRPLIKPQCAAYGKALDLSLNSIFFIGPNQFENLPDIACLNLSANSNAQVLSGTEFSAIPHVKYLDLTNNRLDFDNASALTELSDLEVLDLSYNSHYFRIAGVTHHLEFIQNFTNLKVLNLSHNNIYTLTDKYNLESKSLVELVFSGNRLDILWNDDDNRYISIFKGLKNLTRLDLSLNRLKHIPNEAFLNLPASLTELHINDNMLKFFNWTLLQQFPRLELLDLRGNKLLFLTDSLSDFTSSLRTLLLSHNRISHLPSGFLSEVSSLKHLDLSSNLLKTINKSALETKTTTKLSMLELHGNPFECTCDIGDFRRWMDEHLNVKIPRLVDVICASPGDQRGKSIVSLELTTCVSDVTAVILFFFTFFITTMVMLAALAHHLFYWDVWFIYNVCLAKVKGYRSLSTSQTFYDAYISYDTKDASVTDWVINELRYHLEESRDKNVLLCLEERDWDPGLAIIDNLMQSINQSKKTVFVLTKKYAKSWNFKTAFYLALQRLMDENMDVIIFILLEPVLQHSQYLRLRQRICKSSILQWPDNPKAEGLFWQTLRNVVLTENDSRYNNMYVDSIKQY
measured.property: IC50

Asked: What does the record list as IC50 for `CC(C)c1c(-c2cn(C)c3ncncc23)[nH]c2ccc(N3CCN(C)CC3)nc12` ?
Given back: 0.66 nM

Asked: Record: `CCN(C)C1CCN(c2ccc3[nH]c(-c4cn5ncnc5c(C)c4C)c(C(C)C)c3n2)CC1`
Given back: 0.98 nM

Asked: Same question for CC(C)c1c(-c2cn(C)c3ncccc23)[nH]c2ccc(C3CCC(N(C)CC(=O)N(C)C)CC3)nc12 (stereo not drawn) [Example 201] please.
Given back: 6 nM

Asked: Moving on to CC(C)c1c(-c2cc(CO)c3ncnn3c2)[nH]c2ccc(N3CCC(NCC(=O)N(C)C)CC3)nc12 [Example 84]
Given back: > 3120 nM

Asked: Please give the result for `Cc1c(-c2[nH]c3ccc(N4CCNC[C@@H]4C)nc3c2C(C)C)cn2ncnc2c1C` too.
Given back: 1.6 nM

Asked: Now this one: `Cc1c(-c2[nH]c3ccc(N4CCN(C)CC4=O)nc3c2C(C)C)cn2ncnc2c1C`
Given back: 45 nM

Asked: Queued: `Cc1c(-c2[nH]c3ccc(N4CC(N(C)CC(=O)N(C)C)C4)nc3c2C(C)C)cn2ncnc2c1C`
Given back: 46 nM

Asked: Another: COc1cc(-c2[nH]c3cc(C)c(C4CCC(NC5COC5)CC4)nc3c2C(C)C)cn2ncnc12 (stereo not drawn) [Example 316]
Given back: 41 nM

Asked: Subsequent entry: `Cc1c(-c2[nH]c3ccc(N4CCN(CC(C)(C)O)CC4)nc3c2C(C)C)cn2ncnc2c1C`
Given back: 0.15 nM

Asked: What about Cc1c(-c2[nH]c3ccc(N4CCC(NCC5(S(C)(=O)=O)CC5)C4)nc3c2C(C)C)cn2ncnc2c1C (stereo not drawn) ?
Given back: 0.68 nM

Asked: Again, but for CC(C)c1c(-c2cc(CO)c3ncnn3c2)[nH]c2ccc(C3CCC(NCc4c[nH]nn4)CC3)nc12 (stereo not drawn) [Example 221]
Given back: 13 nM

Asked: Next entry: COc1cc(-c2[nH]c3cc(C)c(C4CCC(N(C)Cc5ncn(C)n5)CC4)nc3c2C(C)C)cn2ncnc12 (stereo not drawn) [Example 332]
Given back: 88 nM

Asked: Next molecule: CC(C)c1c(-c2cn(CC#N)c3ncccc23)[nH]c2ccc(C3CCC(NCCS(C)(=O)=O)CC3)nc12 (stereo not drawn) [Example 275]
Given back: 8.5 nM

Asked: Do the same for COc1cc(-c2[nH]c3ccc(N4CCN(C5CCC(O)CC5)CC4)nc3c2C(C)C)cn2ncnc12 (stereo not drawn) please
Given back: 0.95 nM

Asked: Also, CC(C)c1c(-c2cc(CO)c3ncnn3c2)[nH]c2ccc(C3CCC(N(C)C4COC4)CC3)nc12 (stereo not drawn) [Example 252] please.
Given back: 10 nM
